Origin of the recorded values: PubChem BioAssay (NCI)

Test system: MOLT-4 leukemia
MEASUREMENT_NOTES: NCI-60 one-dose screen, 48 h (100 = growth as untreated, 0 = no growth, -100 = all killed)
DETAILS: 10 µM
About 83,000 compounds went through this panel and 20% of them were active in at least one assay; those are over-represented in the sample as a whole.
METRIC: growth (%)
Numbers only, in %.

The examples below pair each entry with its known result.
COMPOUND	READOUT_VALUE
Cc1ccc(C(=O)N/C(=C2/OCCN2C)[P+](c2ccccc2)(c2ccccc2)c2ccccc2)cc1	84.4
O=C(NO)c1ccc(Cn2ccc3c(NCc4ccccc4)ncnc32)cc1	3.81
COc1cccc(/C=N/NC(=O)c2ccc3nc(-c4ccc(Cl)cc4)[nH]c3c2)c1O	-50.4
O=C(Cc1ccc2c(c1)CN(C1CCC(=O)NC1=O)C2=O)NCc1cccc2ccccc12 (stereo not given)	-15.2

Provide growth values for the following items, in order.
1. COc1ccc(CCN2C(=O)/C(=C/c3csc(C#N)n3)SC2=S)cc1
2. Cc1nc(Nc2nc(C)c3ccc(OCCN4CCOCC4)cc3n2)[nH]c(=O)c1C
3. CN1CCN(c2ccc(C(=O)/C=C/c3ccc(C#N)cc3)cc2)CC1

A)
1: -11.2; 2: 1.13; 3: 90.5

Provide growth values for the following items, in order.
1. O=C1NC(=NC2CCCCCC2)N/C1=C\c1ccc2ncoc2c1
2. O=C(CNc1nc(-c2ccccc2)cs1)Nc1ccccc1
3. O=S(=O)(Nc1ncccn1)c1ccc(-n2c(-c3ccccc3)nc(-c3ccccc3)c2-c2ccccc2)cc1

A)
1. 38.2
2. -3.86
3. 92.1
